test system: Plasmodium falciparum; test: Confirmatory screen in NF54 nanoGlo assay, in single point, at 2uM, 72h; assay type: functional, Erythrocyte; conditions: timepoint 72 hour
The whole screen tested about 4,800 compounds, of which about 420 (8.8%) showed an effect of 50% or more. The list comes from a sample in which strong results are over-represented; it also holds close analogues and randomly drawn compounds.
I'd appreciate it if you could supply % Inhibition values for the items below.
Express the result in % but write the number alone.

Tested on Plasmodium falciparum, the item "O=C(NC1CC1)c1nc(C(=O)N2CCN(c3ccccn3)CC2)cs1" showed % Inhibition equal to -1

The measured % Inhibition that CCN(CC)CC(O)COc1c(Br)cc(C(C)(C)c2cc(Br)c(OCC(O)CN(CC)CC)c(Br)c2)cc1Br (stereo not drawn) showed for Plasmodium falciparum is 99

Plasmodium falciparum data for "Cn1n[n+](CCCCC(Cl)(Cl)Cl)c2ccccc21" ; its % Inhibition: 53

Measured % Inhibition (Plasmodium falciparum), entry "CCOc1cc2c(cc1OC)[C@@H](N)CC2=O" : 1

Let me check: Cc1nccc(N(C)C2CC(Oc3ccccc3)C2(C)C)n1 (stereo not drawn) , system Plasmodium falciparum, measured % Inhibition is -5

# "NC(=O)c1ccc(C(F)(F)F)n(C[C@H](O)c2cc(Cl)ccc2Cl)c1=O" with Plasmodium falciparum: % Inhibition is 63

The compound "N#Cc1nc(NC(=O)c2cc3c(s2)CCOC3)[nH]c1C#N" , tested on Plasmodium falciparum, showed % Inhibition of 3

% Inhibition of "COc1ccc(CNC(=O)[C@H](C)n2ccc3cc(S(=O)(=O)N4CCCC4)ccc32)cc1OC" , assay on Plasmodium falciparum, is 0

Bench note, Plasmodium falciparum: "CCN1CCC(NC(=O)CCc2c[nH]c3ccccc23)CC1" , % Inhibition reads 4

The reported Plasmodium falciparum % Inhibition of "c1ccc(Oc2ccnc(NCC34COCCN3CCOC4)n2)cc1" is -10

Hey, Plasmodium falciparum data for "CCNC(=O)C[C@H]1CCCCN1C(=O)C1CCN(Cc2csc(C)n2)CC1" : % Inhibition came out at -1

Bench note, Plasmodium falciparum: entry "CCC[N+]1(CC#C[C@@](O)(c2ccccc2)C2(C)CCCC2)CCCCC1" , its % Inhibition = 46

Form field % Inhibition for item "CN(C)C(=O)NCCc1ncc(C(F)(F)F)cc1Cl" on Plasmodium falciparum: -5

The value of % Inhibition recorded for "Cc1cc(C)nc([C@@H](C#N)C(=O)c2ccnc(OCC(F)F)c2)n1" when tested on Plasmodium falciparum reads -7

// assay Plasmodium falciparum, entry "COc1cc2c(cc1OC)[C@@H](NC(=O)c1cnc(C3(C)OCCO3)s1)CCCC2" , % Inhibition value = 50

I looked up "COc1ccc(-n2nc(C)c(Cc3ccc(Cl)cc3)c2O)cc1" and its % Inhibition for Plasmodium falciparum was 0

# % Inhibition measured on Plasmodium falciparum for item "CN1CCN(C2(CNc3ccnc4ccccc34)CCCC2)CC1" = 91

Entry "O=S(=O)(Nc1cccc2cccnc12)c1cccs1" ; assay system Plasmodium falciparum; % Inhibition recorded at 60
